- TARGET UNDER TEST: U1A N16A (UniProt P09012 10-89, N16A)
- Sequence (P09012 10-89 N16A): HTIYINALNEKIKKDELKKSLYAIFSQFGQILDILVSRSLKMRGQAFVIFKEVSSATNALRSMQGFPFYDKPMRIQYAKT
- ASSAY METHOD TEXT: fluorescence polarization

| BINDER | Kd / µM |
| --- | --- |
| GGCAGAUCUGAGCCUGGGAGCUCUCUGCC (structured_RNA) [TAR RNA] | 8.8 |

Where do these numbers come from? They come from paper PMC4414246.
